Could you please report measured Tmax for the items listed next?
- ASSAY INFO: In vivo pharmacokinetics in CD-1 mice
- Parameters: species or system mouse
- REPORTED CONDITIONS: male, CD-1, mouse, plasma, po, 20 mg/kg, oral 20 mg/kg, 20% DMA-40% PEG300-40% H2O
Answers without a unit are incomplete; give the number and then its unit.

CC(C)CCOC1=CC(=O)c2ccccc2C1=O [Compound 25, 2-(Isopentyloxy)naphthalene-1,4-dione]: 20 min

Exercise: Look at this molecule and give its reported Tmax. CCC#CCNC1=CC(=O)c2ccccc2C1=O [Compound 3]
Solution: 8.34 min

* * *

- ASSAY INFO: In vivo pharmacokinetics in CD-1 mice
- Set-up: species or system mouse
- REPORTED CONDITIONS: male, CD-1, mouse, plasma; intravenous 5 mg/kg, 20% DMA: 40% PEG300: 40% H2O
- Description: PK studies on 3 and 25 were carried out in CD-1 mice. Three males were dosed via oral gavage needle for oral administration at 20 mg/kg (10 mL/kg) or via intravenous administration at 5 mg/kg (10 mL/kg). Blood samples were taken at time intervals between 5 min and 24 hr from each animal. […] Plasma concentrations were measured as described above to determine a concentration vs. time profile. The area under the plasma concentration vs time curve (AUC) was calculated using the linear trapezoidal method. […]
ASSAY ENDPOINT: C0 (µg/mL)
One number for each entry, in µg/mL.

Exercise: Look at this molecule and give its reported C0. CC(C)CCNC1=CC(=O)c2ccccc2C1=O [Compound 17, 2-(Isopentylamino)naphthalene-1,4-dione]
Solution: 1.91
